# Test system: SK-MEL-2 melanoma
# TEST_NAME: NCI tumour cell line growth inhibition, 48 h
RECORDED_METRIC: TGI (µM)
Express the result in µM but write the number alone.

{"CHEMICAL_SMILES": "CC(C)C(=O)OCN(C)c1nc(N(C)COC(=O)C(C)C)nc(N(C)COC(=O)C(C)C)n1", "UNIT_STRING": "µM", "TGI": 49.8}

In the following, a different compound is considered.
For this compound ( C=C(CBr)CCCOCc1ccccc1 ), measured TGI is 38

* * *

# Test system: OVCAR-5 ovarian
# TEST_NAME: NCI tumour cell line growth inhibition, 48 h
RECORDED_METRIC: TGI

Consider the reported TGI for these compounds:
{"COMPOUND": "OCCCC(O)(c1ccccc1)c1ccccc1", "TARGET_DESC": "OVCAR-5 ovarian", "RECORDED_VALUE": "> 100 µM"}
{"COMPOUND": "C#Cc1cc(-c2nc3ccccc3s2)ccc1N", "TARGET_DESC": "OVCAR-5 ovarian", "RECORDED_VALUE": "> 100 µM"}
{"COMPOUND": "Cc1cc(C(=O)NCCN(C)C)c2nc3ccccc3cc2c1", "TARGET_DESC": "OVCAR-5 ovarian", "RECORDED_VALUE": "8.56 µM"}

For this compound ( CNC(=O)c1ccccc1Nc1cc(Nc2ccc(N3CCOCC3)cc2OC)ncc1C(F)(F)F ), measured TGI is > 100 µM
